The origin of these recorded values is paper PMC3651043.

# target: tKSI (ketosteroid isomerase from Comamonas testosteroni) (Comamonas testosteroni, UniProt P00947, D38A)
# Sequence (P00947 whole entry D38A): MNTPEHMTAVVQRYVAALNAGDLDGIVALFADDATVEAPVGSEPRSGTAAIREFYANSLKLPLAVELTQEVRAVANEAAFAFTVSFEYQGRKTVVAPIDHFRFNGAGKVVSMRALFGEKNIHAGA
# test_name: intrinsic fluorescence quenching
property_name: pKd
Reminder that pKd is minus the log10 of a molar concentration.

(Q) Quick one: pKd for `C[C@]12CCC(=O)C=C1CC[C@@H]1[C@@H]2CC[C@]2(C)C(=O)CC[C@@H]12` ?
(A) 6.04

----------
# target: pKSI (ketosteroid isomerase from Pseudomonas putida) (Pseudomonas putida, UniProt P07445)
# Sequence (P07445 whole entry): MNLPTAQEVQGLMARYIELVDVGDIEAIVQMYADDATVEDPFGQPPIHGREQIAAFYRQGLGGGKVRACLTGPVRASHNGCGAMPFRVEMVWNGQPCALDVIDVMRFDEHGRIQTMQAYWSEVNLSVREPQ
# test_name: intrinsic fluorescence quenching
property_name: Kd (µM)
API: value field is a number in µM; no unit string.

(Q) # Kd lookup, item C[C@]12CCC(=O)C=C1CC[C@@H]1[C@@H]2CC[C@]2(C)C(=O)CC[C@@H]12 [4-androstene-3,17-dione]
(A) 62.5
